system-tested: T1, human Protein S (UniProt P07225 42-676)
T1 chain: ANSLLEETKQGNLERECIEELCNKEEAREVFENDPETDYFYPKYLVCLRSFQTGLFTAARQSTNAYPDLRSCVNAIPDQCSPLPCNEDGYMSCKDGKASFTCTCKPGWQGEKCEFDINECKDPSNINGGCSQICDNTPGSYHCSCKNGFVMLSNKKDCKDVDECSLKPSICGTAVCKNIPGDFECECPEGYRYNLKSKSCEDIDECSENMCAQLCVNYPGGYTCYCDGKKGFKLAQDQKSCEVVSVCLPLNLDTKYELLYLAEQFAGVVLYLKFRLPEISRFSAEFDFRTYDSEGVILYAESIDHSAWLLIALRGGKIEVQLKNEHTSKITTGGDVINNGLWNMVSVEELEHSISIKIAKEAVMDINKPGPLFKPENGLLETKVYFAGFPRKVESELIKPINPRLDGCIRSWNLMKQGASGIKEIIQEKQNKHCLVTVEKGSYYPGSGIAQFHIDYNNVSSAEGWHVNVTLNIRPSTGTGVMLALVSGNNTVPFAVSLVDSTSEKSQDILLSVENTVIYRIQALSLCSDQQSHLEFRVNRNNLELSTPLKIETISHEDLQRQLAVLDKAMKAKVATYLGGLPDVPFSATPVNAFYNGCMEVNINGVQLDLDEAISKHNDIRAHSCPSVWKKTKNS
method-description: LANCE competition
readout-name: IC50

{"binder": "Ac-EYYVTAGWYDYNTDTYYEFE-NH2 [JBS3232]", "readout-name": "IC50", "observed": "0.9 nM"}
{"binder": "Ac-SATVSAGWYDYNKDVYFEFE-NH2 [JBS3273]", "readout-name": "IC50", "observed": "2.3 nM"}
{"binder": "Ac-EYYVSAGWYDYNADTYYEFE-NH2 [JBS3234]", "readout-name": "IC50", "observed": "2.7 nM"}
{"binder": "Ac-YGLVSAGWYDYNFDHYMEFT-NH2 [JBS3196]", "readout-name": "IC50", "observed": "2.5 nM"}
